Origin of measurements: ChEMBL document CHEMBL1133536

# target under test: UniProt P05202
# Sequence (P05202 whole entry): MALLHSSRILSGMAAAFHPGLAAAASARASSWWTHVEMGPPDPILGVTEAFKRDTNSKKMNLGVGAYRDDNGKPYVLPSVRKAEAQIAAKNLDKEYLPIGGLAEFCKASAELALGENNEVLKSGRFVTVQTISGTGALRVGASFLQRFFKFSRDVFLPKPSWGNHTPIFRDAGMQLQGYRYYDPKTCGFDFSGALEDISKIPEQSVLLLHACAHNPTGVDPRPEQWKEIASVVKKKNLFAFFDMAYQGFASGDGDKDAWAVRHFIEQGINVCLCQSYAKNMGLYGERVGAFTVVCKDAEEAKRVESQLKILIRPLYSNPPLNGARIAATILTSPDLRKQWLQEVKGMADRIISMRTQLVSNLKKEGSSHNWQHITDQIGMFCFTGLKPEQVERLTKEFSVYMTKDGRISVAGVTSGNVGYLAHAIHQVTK
# procedure details: In vivo toxic effect as serum aspartate aminotransferase (ASAT) 24 hr after 50 ug pTG11033 plasmid injection without co-lipid into mice
# Type: functional, organism-based

>  <compound>
CCCCCCCCCCCCCCOP(=O)(CC[As+](C)(C)C)OCCCCCCCCCCCCCC.[I-]

>  <Toxicity>
79

$$$$
>  <compound>
CCCCCCCCCCCCCCOP(=O)(CC[P+](C)(C)C)OCCCCCCCCCCCCCC.[I-]

>  <Toxicity>
120

$$$$
>  <compound>
CCCCCCCC/C=C\CCCCCCCC(=O)OCC(C[N+](C)(C)C)OC(=O)CCCCCCC/C=C\CCCCCCCC.[Cl-] (configuration not stated)

>  <Toxicity>
657

$$$$
>  <compound>
CCCCCCCC/C=C/CCCCCCCCOP(=O)(CC[As+](C)(C)C)OCCCCCCCC/C=C/CCCCCCCC.[I-]

>  <Toxicity>
225

$$$$
>  <compound>
CCCCCCCC/C=C/CCCCCCCCOP(=O)(CC[P+](C)(C)C)OCCCCCCCC/C=C/CCCCCCCC.[I-]

>  <Toxicity>
250

$$$$
>  <compound>
CCCCCCCCCCCCCCOP(=O)(C[N+](C)(C)C)OCCCCCCCCCCCCCC.[I-]

>  <Toxicity>
80

$$$$
>  <compound>
CCCCCCCC/C=C/CCCCCCCCOP(=O)(C[N+](C)(C)C)OCCCCCCCC/C=C/CCCCCCCC.[I-]

>  <Toxicity>
900

$$$$
